Method: Repeated dose 28 day toxicokinetics
Condition description: female, Sprague Dawley, rat, in vivo, po, 2 mg/kg, Cmax, Day 1, female rats, 2 mg/kg oral
Measured quantity: Cmax (ng/mL)

In [3]: df
Out[3]:
                                   molecule  measured_quantity  readout_units  result
0  CN[C@]1(c2ccccc2Cl)CCCCC1=O [esketamine]               Cmax          ng/mL    67.2
